Overview of reported blocking ELISA signal normalized to isotype control (=1) across a group of binders:
# experimentalTarget: T1, mouse IL-18BPd-human IgG Fc (R&D Systems, Cat. #122-BP-100) (mouse; human, UniProt Q9Z0M9 29-193)
# T1 construct: Bought; also called mouse IL-18BPd-Fc Chimera
# T1 sequence (looked up): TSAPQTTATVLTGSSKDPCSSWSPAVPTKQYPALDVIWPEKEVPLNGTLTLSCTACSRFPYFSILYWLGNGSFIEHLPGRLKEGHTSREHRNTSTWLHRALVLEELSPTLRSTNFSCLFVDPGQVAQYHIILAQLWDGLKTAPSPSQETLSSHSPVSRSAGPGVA
# method: blocking ELISA, competitor mouse IL-18

binder	valueReported
anti-IL18BP antibody BP-11 (antibody, human IgG1, V domains shown) VH: QVQLQQSGAELAKPGASVKMSCKASGYTFTNYWMHWVKQRPGQGLEWIGHIDPSTGYTEYNQKFKDKATLTADKSSSTAYMQLSSLTSEDSAVYYCARGLGGLFGYWGQGTLVTVSA VL: DIQMTQSPSSLSASLGGKVTITCKASQDINKFIAWYQHKPGKGPRLLIHHTSTLMPGIPSRFSGSGSGREYSFSISNLEPEDIATYYCLQYDNLLWTFGGGTKLEIR	0.14 ratio to isotype control

# input binder: anti-IL18BP antibody BP-01 (antibody, human IgG1, V domains shown) VH: QVQLQQSGPEVVRPGVSVKISCKGSGYTFTDFAMYWVKQSHAKSLEWIGVISTDNGDTSYNQKFKGKATMTVDKSSSTAYMELDRLTSEDSAIYYCARSRGPFDYWGQGTALTVSS VL: DIVMTQSHKFKSTSVGDRVNITCKASQDVGTAVAWYQQKPGQSPKLLIYWASTRHIGVPDRFTGSGSGTDFTLTIRNVQSEDLADYFCQRYSSYPWTFGGGTKLEIK ; wanted: its blocking ELISA signal normalized to isotype control (=1)
0.316 ratio to isotype control

Also check anti-IL18BP antibody BP-03 (antibody, human IgG1, V domains shown) VH: EVQLQQSGPELVKPGASVKIPCKASGYTFTDYNMDWVKQSHGKSLEWIGNINTDNGGTVYNQKFKGKATLTVDQSSSTAYMELRSLTSEDTAVYYCARSDTTVVASRYYAMDYWGQGTSVTVSS VL: DIVLTQSPASLAMSLGKRATISCRASESVSIIGTNLIHWYQQKPGQPPKLLIYHASNLETGVPARFSGSGSRTDFTLTIDPVEEDDVAIYYCLQSRKIPPTFGGGTKLEIK
0.157 ratio to isotype control
